Biological target: human immunoproteasome β5i (Homo sapiens, UniProt P28062)
Construct: purchased Boston Biochem Inc
Assay: IC50 against chymotryptic β5i activity of human immunoproteasome (96-well plate, Ac-ANW-AMC)
Format: biochemical
Conditions: β5i; substrate Ac-ANW-AMC; read-out: IC50 Hu i-20S (Ac-ANW-AMC)
Procedure: A 96-well-plate assays were used to determine the IC50s against the chymotryptic β5 activities of the proteasomes. Both human constitutive proteasome and immunoproteasome were purchased from Boston Biochem Inc. 1 μL of 100× compound in DMSO at designated concentrations were spotted at the bottom of the wells. DMSO was used as a control. […] The hydrolysis of the substrate over time in each well was monitored at excitation 360 nm, emission 460 nm for 90 minutes. […]
measure: IC50 (nM)

Example entries and their recorded answers appear below.
// sample Cc1cc(C(=O)N[C@@H](CC(=O)NC(C)(C)C)C(=O)NCCNC(=O)c2ccccc2F)no1 [PKS21251] , its IC50 was 6340

// sample Cc1ccc(S(=O)(=O)N[C@@H](CC(=O)NC(C)(C)C)C(=O)NCCNC(=O)c2cc(-c3ccccc3)ccn2)cc1 [PKS21229] , its IC50 was 19

// sample O=C(CCc1ccc(F)cc1)N[C@@H](CC(=O)NC1(C(F)(F)F)CC1)C(=O)NCCNC(=O)c1cccc(-c2ccccc2)c1 [PKS21278] , its IC50 was 80

// sample Cc1ccc(S(=O)(=O)N[C@@H](CC(=O)NC(C)(C)C)C(=O)NCCNC(=O)c2cc(-c3cccc(F)c3)ccc2F)cc1 [PKS21228] , its IC50 was 12

// sample CC(C)(C)NC(=O)C[C@H](NC(=O)CCc1ccccc1)C(=O)NCCNC(=O)c1cccc(-c2ccc(C#N)cc2)c1 [PKS21028] , its IC50 was 2060

// sample CC(CNC(=O)c1cccc(-c2ccccc2)c1)NC(=O)[C@H](CC(=O)NC(C)(C)C)NC(=O)CCc1ccccc1 (mixture of isomers) [PKS21018] , its IC50 was 2350

// sample CC(C)(C)NC(=O)C[C@H](NC(=O)OC(C)(C)C)C(=O)NCCNC(=O)c1cc(-c2ccccc2F)ccc1F [PKS21277] , its IC50 was 112

// sample Cc1cc(C(=O)N[C@@H](CC(=O)NC(C)(C)C)C(=O)NCCNC(=O)c2cc(-c3cccc(F)c3)ccc2F)no1 [PKS21225] , its IC50 was 269

P: Cc1ccc(S(=O)(=O)N[C@@H](CC(N)=O)C(=O)NCCNC(=O)c2cc(-c3ccccc3F)ccc2F)cc1 [PKS21288]
Q: Cc1ccc(S(=O)(=O)N[C@@H](CC(=O)NC(C)(C)C)C(=O)NCCNC(=O)c2ccccc2O)cc1 [PKS21292]
Q: Between the two listed entries P and Q , which has its IC50 at the higher number? Answer = label.
Ans: P
(P: 4140 nM, Q: 15 nM)

a: Cc1cc(C(=O)N[C@@H](CC(=O)NC(C)(C)C)C(=O)NCCNC(=O)c2cc(-c3ccccc3F)ccc2F)no1 [PKS21208]
b: CC(C)(C)NC(=O)C[C@H](NC(=O)CCc1ccccc1)C(=O)NCCCNC(=O)c1cccc(-c2ccccc2)c1 [PKS21019]
Q: Of a and b , which carries the smaller reported IC50 figure? Answer = label.
Ans: a

P: O=C(CCc1ccc(F)cc1)N[C@@H](CC(=O)NC1(C(F)(F)F)CC1)C(=O)NCCNC(=O)c1cc(-c2ccccc2F)ccc1F [PKS21279]
Q: CC(C)(C)NC(=O)CC[C@H](NC(=O)CCc1ccccc1)C(=O)NCCNC(=O)c1cccc(-c2ccccc2)c1 [PKS21030]
R: Cc1ccc(S(=O)(=O)N[C@@H](CC(=O)NC(C)(C)C)C(=O)NCCNC(=O)c2cccc(-c3cc[nH]n3)c2)cc1 [PKS21282]
S: CC(C)(C)NC(=O)C[C@H](NC(=O)CCc1ccc(F)cc1)C(=O)NCCNC(=O)c1ccccn1 [PKS21254]
T: CC(C)(C)NC(=O)C[C@H](NC(=O)CCc1ccc(F)cc1)C(=O)NCCNC(=O)c1ccc(F)c2ccccc12 [PKS21259]
Q: Arrange the 5 compounds by rising IC50, starting with the smallest. Return the labels ranked in the requested order, please.
Ans: P, R, T, Q, S
(P: 37 nM, R: 69 nM, T: 158 nM, Q: 390 nM, S: 7770 nM)

A: CC(C)(C)NC(=O)C[C@H](NC(=O)CCc1ccccc1)C(=O)NCCNC(=O)c1cc(-c2ccccc2)ccc1F [PKS21196]
B: CC(C)(C)NC(=O)C[C@H](NC(=O)CCc1ccccc1)C(=O)NCCNC(=O)c1cc(-c2ccccc2)ccn1 [PKS21186]
Q: Of A and B , which carries the smaller reported IC50 figure? Answer = label.
Ans: A

P: Cc1cc(C(=O)N[C@@H](CC(=O)NC(C)(C)C)C(=O)NCCNC(=O)c2ccccn2)no1 [PKS21250]
Q: CC(C)(C)NC(=O)C[C@H](NS(=O)(=O)C1CC1)C(=O)NCCNC(=O)c1cc(-c2ccccc2F)ccc1F [PKS21293]
Q: Between the two listed entries P and Q , which has its IC50 at the higher number? Answer = label.
Ans: P
(P: 65600 nM, Q: 15 nM)

P: CC(C)(C)NC(=O)C[C@H](NC(=O)CCc1ccccc1)C(=O)NCCNC(=O)c1cc(-c2ccccc2F)ccc1F [PKS21187]
Q: CC(=O)N[C@@H](CC(=O)NC(C)(C)C)C(=O)NCCNC(=O)c1cc(-c2ccccc2F)ccc1F [PKS21294]
R: C[C@H](NC(=O)OC(C)(C)C)C(=O)NCCNC(=O)c1cc(-c2ccccc2F)ccc1F [PKS21280]
S: CC(C)(C)NC(=O)C[C@H](NC(=O)CCc1ccccc1)C(=O)NCCNC(=O)c1cccc2ccccc12 [PKS3080]
Q: Sort these compounds on IC50 so the largest reading comes first. Return the labels ranked in the requested order, please.
Ans: R, Q, S, P
